Known T/C of a selection of molecules
tested on: P388 leukemia ip, CD2F1 mice, survival T/C; assay: NCI In Vivo Anticancer Drug Screen. Data for tumor model P388 Leukemia (intraperitoneal) in CD2F1 (CDF1) mice; conditions: endpoint: median survival time; dose: 50.0 mg/kg/injection; schedule: Q04DX002 (ip); vehicle: saline with Tween-80; higher = longer survival
Toxic doses and inconclusive results are not listed.

Example cases with answers are listed next.
Please give the measured T/C for this molecule: CSc1snc2c1c(=O)n(C)c(=O)n2C
101 % of control

Which T/C is reported for this molecule? CCCCCCN=C(N)N/N=C(\C)c1ccc2c(c1)Cc1ccccc1-2
92 % of control

GET /values?readout=T/C&item= C/C(=N\NC(N)=Nc1ccccc1)c1ccc(Cl)c(Cl)c1
101 % of control

Look up T/C: COC1=C(OC)C(=O)C(SCCCc2ccccc2)=CC1=O
122 % of control

Consider the molecule shown here: CCC/C(=N\NC(N)=NC)c1ccc2c(c1)Cc1ccccc1-2 What is its recorded T/C?
106 % of control

Next:
Reported T/C, molecule CC1(C)C=Cc2c(ccc3c(=O)c(-c4ccc5c(c4)OCO5)coc23)O1 : ____
101 % of control

---

tested on: P388 leukemia ip, CD2F1 mice, survival T/C; test: NCI In Vivo Anticancer Drug Screen. Data for tumor model P388 Leukemia (intraperitoneal) in CD2F1 (CDF1) mice; conditions: endpoint: median survival time; dose: 50.0 mg/kg/injection; schedule: Q01DX009 (ip); vehicle: other; higher = longer survival
Inconclusive results and toxic doses are left out.
Readout Type: T/C

Entry O=C(O)C(S)C(S)C(=O)O (stereo not drawn) : reported T/C = ?
103 % of control

What does the data say about its T/C? Entry: COc1cccc2c1C(=O)c1c(O)c3c(c(O)c1C2=O)CC(O)(c1csc(N)n1)CC3O (stereo not drawn)
108 % of control

Returns the measured T/C for the input molecule. Input: CC(C)NC(=O)c1ccc(CBr)cc1
99 % of control

Can you share its T/C? I mean this molecule: O=C(COc1ccc(Cl)cc1)OC(=O)COc1ccc(Cl)cc1
112 % of control

Could you share which T/C value was measured for O=C(CNOCc1ccccc1)OCc1ccccc1 ?
99 % of control

---
Returns the measured T/C for the input molecule. Input: NC(CCS(=O)(=O)NCc1ccc(S(=O)(=O)F)cc1)C(=O)O (stereo not drawn)
100 % of control

Look at this molecule and give its reported T/C. CN(C)Cc1cc(O)c(CN(C)C)cc1O
105 % of control

Name the reported T/C value associated with the molecule COc1ccc2ccc(C=O)cc2c1OC
95 % of control

---

tested on: P388 leukemia ip, CD2F1 mice, survival T/C; assay: NCI In Vivo Anticancer Drug Screen. Data for tumor model P388 Leukemia (intraperitoneal) in CD2F1 (CDF1) mice; conditions: endpoint: median survival time; dose: 30.0 mg/kg/injection; schedule: Q01DX005 (ip); vehicle: saline; higher = longer survival
Inconclusive results and toxic doses are left out.
Readout Type: T/C

// below: answered compounds
I am curious: what T/C value has been reported for C/C(=N\NC1=NCCN1)c1cn(C2=NCCN2)nc1C ?
97 % of control

Need T/C of N=C(N)Cl , thanks.
94 % of control

# lookup: T/C of C[N+]1(Cc2ccccc2)C2CCC(O)C1CC2 (centres undefined)
100 % of control

Now look at this one.
T/C for CN(C)CCNC(=Cc1ccc2ccccc2[n+]1C)NCCN(C)C ?
97 % of control

---

test system: P388 leukemia ip, CD2F1 mice, survival T/C; assay: NCI In Vivo Anticancer Drug Screen. Data for tumor model P388 Leukemia (intraperitoneal) in CD2F1 (CDF1) mice; settings: endpoint: median survival time; dose: 100.0 mg/kg/injection; schedule: Q01DX009 (ip); vehicle: Klucel (hydroxypropylcellulose) (HPC); higher = longer survival
Toxic doses and inconclusive results are not listed.
Readout Type: T/C

Record request: T/C value, item COC1/C=C\OC2(C)Oc3c(C)c(O)c4c(O)c(c5[nH]cnc5c4c3C2=O)NC(=O)/C(C)=C\C=C\C(C)C(O)C(C)C(O)C(C)C(OC(C)=O)C1C (centres undefined)
100 % of control

Param item = CN(C)CSc1nc2ccccc2s1 ; retrieve measured T/C.
94 % of control

// lookup T/C for CCn1c2ccccc2c2cc(N)c(N=Nc3ccc([N+](=O)[O-])c(OC)c3)cc21
104 % of control

Next:
Can you share its T/C? I mean this compound: C=CC1(C)CCC2C(=CCC3C2(C)CC(O)C(O)C3(C)COC2OC(C(=O)O)C(O)C(O)C2O)C1 (centres undefined) (tested in a mixture with another compound)
100 % of control

Name the recorded T/C for CCCCCCCCN(C)N=Nc1ccccc1C(=O)O .
108 % of control

---

test system: P388 leukemia ip, CD2F1 mice, survival T/C; experiment: NCI In Vivo Anticancer Drug Screen. Data for tumor model P388 Leukemia (intraperitoneal) in CD2F1 (CDF1) mice; conditions: endpoint: median survival time; dose: 200.0 mg/kg/injection; schedule: Q04DX003 (ip); vehicle: saline with Tween-80; higher = longer survival
Toxic doses and inconclusive results are not listed.
Known T/C of a selection of molecules

Past entries and their recorded results:
Request the reported T/C associated with CC(=O)C(N=Nc1ccc(S(=O)(=O)N=C(N)N)cc1)C(C)=O
88 % of control

So what does the record say about T/C for O=C(O)c1cccc([N+](=O)[O-])c1C(=O)O ?
94 % of control

What value of T/C has been recorded for this entry: OC(CCl)Cn1nnc2c3ccccc3ccc21 (configuration not stated)
94 % of control

Item CCOc1ccc(/C=N/NS(=O)(=O)c2ccccc2)cc1OC has what recorded T/C?
95 % of control

Quick one: T/C for Cc1ccc(S(=O)(=O)NCCCl)cc1 ?
98 % of control

# query: T/C of entry CCOP(=O)(N(CCCl)CCCl)N1CCc2ccccc2C1 (configuration not stated)
112 % of control

Okay, now this molecule:
Which T/C value is on record for CSC(=NNC(N)=O)SC ?
102 % of control

---

tested on: P388 leukemia ip, CD2F1 mice, survival T/C; test: NCI In Vivo Anticancer Drug Screen. Data for tumor model P388 Leukemia (intraperitoneal) in CD2F1 (CDF1) mice; settings: endpoint: median survival time; dose: 25.0 mg/kg/injection; schedule: Q01DX009 (ip); vehicle: saline
Toxic doses and inconclusive results are not listed. How the source made its calls: active means survival T/C of 150% or more; inactive means T/C below 125% in these data.
Allowed answers: active, inactive

What call does the record list for CN1CCN(CN2C(=O)C3C4C=CC(C3C2=O)C2C3C(=O)N(CN5CCN(C)CC5)C(=O)C3C42)CC1 (centres undefined) ?
inactive

***
Fill in: this test's call for CC(C)N1CCOCC1 is ___
inactive

Hi team, can someone confirm the assay call for O=C1Nc2ccccc2SC1c1ccccc1Cl (centres undefined) ?
inactive

Please state the recorded outcome for this molecule: CS(=O)(=O)OCCN(CCOS(C)(=O)=O)c1ccccc1
active

How did this test come out for C[N+](C)(C)CC(O)c1ccc(O)c(O)c1 (centres undefined) ?
inactive

Identify the outcome logged in this assay for the molecule shown: Cn1cnccc1=O
inactive

---

test system: P388 leukemia ip, CD2F1 mice, survival T/C; experiment: NCI In Vivo Anticancer Drug Screen. Data for tumor model P388 Leukemia (intraperitoneal) in CD2F1 (CDF1) mice; settings: endpoint: median survival time; dose: 200.0 mg/kg/injection; schedule: Q01DX001 (ip); vehicle: saline with Tween-80; higher = longer survival
Inconclusive results and toxic doses are left out.
Readout Type: T/C

Given the compound CC(=O)O.CC(C)=CCC(OC(=O)C=C(C)C)c1cc(O)c2c(O)ccc(O)c2c1O.[Cr] (centres undefined) , what is its reported T/C?
93 % of control

Dear colleague, I am looking for the recorded T/C of the following compound: CNC(=O)Sc1nnnc2ccccc12
104 % of control

---

Measured T/C by item
system: P388 leukemia ip, CD2F1 mice, survival T/C; test: NCI In Vivo Anticancer Drug Screen. Data for tumor model P388 Leukemia (intraperitoneal) in CD2F1 (CDF1) mice; conditions: endpoint: median survival time; dose: 200.0 mg/kg/injection; schedule: Q01DX009 (ip); vehicle: saline; higher = longer survival
Toxic doses and inconclusive results are not listed.

Some solved cases for reference:
Using the record for CC(=N)C1C(=O)C=C(C)OC1=O (stereo not given) , report its T/C.
88 % of control

I am curious: what T/C value has been reported for CC(O)CC(c1ccccc1)C(C(=O)O)c1ccccc1 (stereo not given) ?
95 % of control

Further cases:
Look up T/C for this molecule: CC1=CC(C)=Nc2ccccc2N1
94 % of control

Value lookup for T/C; key = CC1Cc2c([nH]c3ccccc3c2=O)O1 (stereo not given)
100 % of control

Would you kindly share the measured T/C for CCOC(=O)CCN(CC)CC ?
111 % of control
